Value source: ChEMBL document CHEMBL1150198

system: Calf thymus DNA; assay: Binding affinity to calf thymus DNA assessed as reduction in DNA peak by pre-incubation method; type: nucleic-acid assay; parameters: concentration or dose not given beside the values; conditions: Bos taurus
recorded endpoint: Activity (%)
Respond numerically; units are % and should not be typed.

Please report the measured Activity for C=C1C(=O)O[C@H]2[C@H]1[C@@H](O)[C@H](OC(=O)C=C(C)C)C(C)=C1C[C@H]3O[C@@]3(C)[C@@H]12 tested on Calf thymus DNA.
30

Please report the measured Activity for COc1cccc2c1C(=O)c1c(O)c3c(c(O)c1C2=O)C[C@@](O)(C(=O)CO)C[C@@H]3O[C@H]1C[C@H](N)[C@H](O)[C@H](C)O1 tested on Calf thymus DNA.
100

Please report the measured Activity for COc1ccc2c(c1)c1ccnc3ccc(=O)n2c31 tested on Calf thymus DNA.
30

Please report the measured Activity for CC(C)=CC(=O)O[C@@H]1C(C)=C2C(=O)C=C(C)[C@]2(O)[C@H]2OC(=O)C[C@@H]2[C@H]1O tested on Calf thymus DNA.
30

Please report the measured Activity for COc1cccc2c1C(=O)c1c(O)c3c(c(O)c1C2=O)C[C@@](O)(C(C)=O)C[C@@H]3O[C@H]1C[C@H](N)[C@H](O)[C@H](C)O1 tested on Calf thymus DNA.
100

###

tested on: Calf thymus DNA; assay: Binding affinity to calf thymus DNA assessed as reduction in DNA peak by pre-incubation method; assay type: nucleic-acid assay; design: concentration or dose not given beside the values; conditions: Bos taurus
Starred links: 1 amine or outer side, 2 acyl side, 3 side chain; linkers in the order of their positions; H or OH if unused. Positions of bridges follow the written chain, without caps; N, C: chain ends. Non-standard residues stand in square brackets, D forms with d. Residues, ends and D or L forms follow the SMILES beside them. Chains are numbered I, II in the order given. Actinocin(9to1) = Cc1c2oc3c(C)ccc(C(=O)[*:1])c3nc-2c(C(=O)[*:2])c(N)c1=O; NMeV = CN[C@H](C(=O)O)C(C)C; Sar = CNCC(=O)O
recorded endpoint: Activity (%)
Respond numerically; units are % and should not be typed.

Please report the measured Activity for CC[n+]1c(-c2ccccc2)c2cc(N)ccc2c2ccc(N)cc21 tested on Calf thymus DNA.
100

Please report the measured Activity for Cc1c2oc3c(C)ccc(C(=O)N[C@@H]4C(=O)N[C@H](C(C)C)C(=O)N5CCC[C@H]5C(=O)N(C)CC(=O)N(C)[C@@H](C(C)C)C(=O)O[C@@H]4C)c3nc-2c(C(=O)N[C@@H]2C(=O)N[C@H](C(C)C)C(=O)N3CCC[C@H]3C(=O)N(C)CC(=O)N(C)[C@@H](C(C)C)C(=O)O[C@@H]2C)c(N)c1=O (I: T[dV]P[Sar][NMeV] / II: T[dV]P[Sar][NMeV]; ester I:1-I:C, II:1-II:C; linker I:N-II:N via Actinocin(9to1)) tested on Calf thymus DNA.
30

Please report the measured Activity for C=C1C(=O)O[C@@H]2C3O[C@]3(C)CC/C=C(\C)CC[C@@H]12 (stereo not given in full) tested on Calf thymus DNA.
30

Please report the measured Activity for C=C1C(=O)O[C@H]2[C@H]1[C@@H](O)[C@H](O)C(C)=C1C[C@H]3O[C@@]3(C)[C@@H]12 tested on Calf thymus DNA.
30
